System: Streptococcus pyogenes
Assay Remarks: Antibacterial activity was tested in vitro against Streptococcus pyogenes C-203 using standard microtitration techniques
Type: functional
Listed here are molecules together with their documented MIC.
Measurement Name: MIC (µg/mL)

• O=C(O)c1cn(-c2ccc(F)cc2F)c2nc(C3=CCNCC3)c(F)cc2c1=O = 0.4
• O=C(O)c1cn(C2CC2)c2nc(C3=CCNCC3)c(F)cc2c1=O = 0.4
• NC1C=C(c2nc3c(cc2F)c(=O)c(C(=O)O)cn3C2CC2)CC1 (stereo unspecified) = 0.4
• NC1C=C(c2cc3c(cc2F)c(=O)c(C(=O)O)cn3C2CC2)CC1 (stereo unspecified) = 0.2
• O=C(O)c1cn(C2CC2)c2cc(C3CCNCC3)c(F)cc2c1=O = 0.4
• O=C(O)c1cn(C2CC2)c2cc(C3=CCNCC3)c(F)cc2c1=O = 0.4
